Values compiled from patent US20250333393A1.

- test: Drug concentrations in plasma samples and brain tissue samples after oral administration, LC-MS/MS
- Format: in vivo, female C57BL/6 mice
- study_conditions: female, C57BL/6, mouse, plasma, 90 mg/kg, 90 mg QD oral, 15 consecutive days, 2Hr after the last dose, mice, read-out: concentration in plasma
reported_endpoint: concentration at 2 h (ng/mL)
Numeric only. Scale: ng/mL

Fill blank: measured concentration at 2 h of the compound [2H]C([2H])([2H])Oc1c(-c2cnn(C)n2)ccnc1Nc1cc(NC(=O)[C@H]2CC23CC3)ncc1C(=O)CC [Compound 4S] is ____. 4720

---

- test: Drug concentrations in plasma samples and brain tissue samples after oral administration, LC-MS/MS
- Format: in vivo, female C57BL/6 mice
- study_conditions: female, C57BL/6, mouse, brain, 90 mg/kg, 90 mg QD oral, 15 consecutive days, 2Hr after the last dose, mice, read-out: concentration in brain
reported_endpoint: concentration at 2 h (ng/mL)
Numeric only. Scale: ng/mL

Fill blank: measured concentration at 2 h of the molecule [2H]C([2H])([2H])Oc1c(-c2cnn(C)n2)ccnc1Nc1cc(NC(=O)[C@H]2CC23CC3)ncc1C(=O)CC [Compound 4S] is ____. 6260

---

- test: Drug concentrations in plasma samples and brain tissue samples after oral administration, LC-MS/MS
- Type: in vivo, female C57BL/6 mice
- study_conditions: female, C57BL/6, mouse, brain/plasma, 30 mg/kg, 30 mg BID oral, 15 consecutive days, 2Hr after the last dose, mice, read-out: Ratio (brain tissue to plasma concentration)
reported_endpoint: Kp at 2 h
Give only the figure.

Fill blank: measured Kp at 2 h of the molecule [2H]C([2H])([2H])Oc1c(-c2cnn(C)n2)ccnc1Nc1cc(NC(=O)[C@H]2CC23CC3)ncc1C(=O)CC [Compound 4S] is ____. 0.88
